// data source = paper PMC12136037

- tested.on: ~100 representative kinases (Homo sapiens, UniProt Q13557)
- Construct: Recombinant protein kinase domains with a concentration of 2 μM
- Sequence (Q13557 whole entry, the tested form may be a part): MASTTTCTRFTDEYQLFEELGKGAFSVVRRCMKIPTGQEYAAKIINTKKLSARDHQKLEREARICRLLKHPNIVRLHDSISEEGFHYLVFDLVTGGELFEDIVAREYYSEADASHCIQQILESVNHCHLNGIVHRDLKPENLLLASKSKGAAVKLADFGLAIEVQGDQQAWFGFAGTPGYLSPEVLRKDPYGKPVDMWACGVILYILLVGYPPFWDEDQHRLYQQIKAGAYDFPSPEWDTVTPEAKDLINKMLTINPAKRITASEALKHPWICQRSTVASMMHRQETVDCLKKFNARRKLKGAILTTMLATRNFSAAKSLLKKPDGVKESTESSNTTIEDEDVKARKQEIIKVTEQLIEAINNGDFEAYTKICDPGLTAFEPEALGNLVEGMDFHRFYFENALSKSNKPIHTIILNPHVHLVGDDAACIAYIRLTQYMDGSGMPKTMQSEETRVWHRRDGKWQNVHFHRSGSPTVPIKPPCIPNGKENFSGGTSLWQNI
- procedure.text: DSF 100 kinase selectivity screen;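 note: compound tested at 20 µM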
- Format: binding
- measurement.conditions: Protein CAMK2D; average of three replicates
parameter: dTm (K)

[1] O=C(Nc1cccc(-c2c[nH]c3ncnc(N4CCOCC4)c23)c1)c1cccn(-c2ccc(F)cc2)c1=O
[2] COc1ccc(NC(=O)C2(C(=O)Nc3cccc(-c4c[nH]c5ncnc(N6CCOCC6)c45)c3)CC2)cc1
[3] O=C(Nc1ccccc1)C1(C(=O)Nc2cccc(-c3c[nH]c4ncnc(N5CCOCC5)c34)c2)CC1
[4] O=C(Nc1cccc(-c2c[nH]c3ncnc(N4CCOCC4)c23)c1)C1(C(=O)Nc2cccc3c2CCC3)CC1
[5] Cc1cc(F)ccc1NC(=O)C1(C(=O)Nc2cccc(-c3c[nH]c4ncnc(N5CCOCC5)c34)c2)CC1
Sort the listed entries by dTm, smallest first. Please express your ranking as an ordered list of the labels. 2, 1, 5, 3, 4
(2: -0.55 K, 1: -0.31 K, 5: -0.18 K, 3: 0.39 K, 4: 0.60 K)

[I] Cc1cc(NC(=O)C2(C(=O)Nc3cccc(-c4c[nH]c5ncnc(N6CCOCC6)c45)c3)CC2)ccc1F
[II] O=C(Nc1cccc(-c2c[nH]c3ncnc(N4CCOCC4)c23)c1)C1(C(=O)Nc2cc(Br)c(F)cc2F)CC1
[III] CCNc1nc(Nc2cc(F)c(C(=O)N3CCOCC3)cc2OC)ncc1C(F)(F)F
Arrange by dTm, high to low. Please express your ranking as an ordered list of the labels. II, I, III
(II: 1.32 K, I: 0.24 K, III: -0.06 K)

----------
- tested.on: ~100 representative kinases (Homo sapiens, UniProt P00519)
- Construct: Recombinant protein kinase domains with a concentration of 2 μM
- Sequence (P00519 whole entry, the tested form may be a part): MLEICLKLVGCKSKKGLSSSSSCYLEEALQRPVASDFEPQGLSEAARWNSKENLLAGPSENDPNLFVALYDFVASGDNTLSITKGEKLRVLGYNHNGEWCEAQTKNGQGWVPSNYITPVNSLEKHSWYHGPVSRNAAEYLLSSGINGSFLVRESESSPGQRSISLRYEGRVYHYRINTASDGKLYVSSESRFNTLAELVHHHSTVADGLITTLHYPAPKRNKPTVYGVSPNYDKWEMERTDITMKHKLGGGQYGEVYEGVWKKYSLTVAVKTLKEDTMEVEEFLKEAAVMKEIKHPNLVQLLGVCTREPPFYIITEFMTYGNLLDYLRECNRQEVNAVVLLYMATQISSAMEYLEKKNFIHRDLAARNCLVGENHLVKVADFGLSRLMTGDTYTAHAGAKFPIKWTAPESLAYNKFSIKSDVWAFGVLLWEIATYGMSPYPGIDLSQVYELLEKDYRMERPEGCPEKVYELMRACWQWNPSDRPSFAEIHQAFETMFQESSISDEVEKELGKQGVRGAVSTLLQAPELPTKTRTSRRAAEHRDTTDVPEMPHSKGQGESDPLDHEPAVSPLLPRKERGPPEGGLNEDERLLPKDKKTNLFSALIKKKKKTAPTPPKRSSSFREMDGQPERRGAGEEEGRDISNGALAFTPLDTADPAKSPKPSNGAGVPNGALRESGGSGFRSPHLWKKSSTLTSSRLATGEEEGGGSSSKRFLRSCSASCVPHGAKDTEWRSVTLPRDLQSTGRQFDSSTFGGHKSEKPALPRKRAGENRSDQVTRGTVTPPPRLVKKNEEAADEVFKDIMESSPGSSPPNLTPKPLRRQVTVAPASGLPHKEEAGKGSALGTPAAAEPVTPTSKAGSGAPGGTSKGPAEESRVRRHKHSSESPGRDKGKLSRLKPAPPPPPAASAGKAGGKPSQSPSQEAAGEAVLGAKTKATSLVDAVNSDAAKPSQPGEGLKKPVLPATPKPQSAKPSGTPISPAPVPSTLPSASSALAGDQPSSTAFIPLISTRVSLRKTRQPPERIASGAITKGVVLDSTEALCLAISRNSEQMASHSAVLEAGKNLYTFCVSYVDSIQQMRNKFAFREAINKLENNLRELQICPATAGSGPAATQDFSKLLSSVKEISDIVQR
- procedure.text: DSF 100 kinase selectivity screen;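 note: compound tested at 20 µM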
- Assay type: binding
- measurement.conditions: Protein ABL1; average of three replicates
parameter: dTm (K)

Example molecules with recorded dTm:
[[record]]
molecule = "COc1cc(C(=O)N2CCOCC2)c(F)cc1Nc1nc(N(C)C)c2c(Cl)c[nH]c2n1 [Compound 36]"
tested_on = "~100 representative kinases (Homo sapiens, UniProt P00519)"
reported_measurement = 1.16

[[record]]
molecule = "O=C(Nc1cccc(-c2c[nH]c3ncnc(N4CCOCC4)c23)c1)C1(C(=O)Nc2ccc(F)c(Br)c2F)CC1 [Compound 26]"
tested_on = "~100 representative kinases (Homo sapiens, UniProt P00519)"
reported_measurement = 1.83

[[record]]
molecule = "O=C(Nc1cccc(-c2c[nH]c3ncnc(N4CCOCC4)c23)c1)C1(C(=O)Nc2ccc(F)c(F)c2)CC1 [Compound 17]"
tested_on = "~100 representative kinases (Homo sapiens, UniProt P00519)"
reported_measurement = 1.22


[I] O=C(Nc1cccc(-c2c[nH]c3ncnc(N4CCOCC4)c23)c1)C1(C(=O)Nc2ccc(F)cc2F)CC1 [Compound 23]
[II] O=C(Nc1ccc(Cl)cc1)C1(C(=O)Nc2cccc(-c3c[nH]c4ncnc(N5CCOCC5)c34)c2)CC1 [Compound 13]
In terms of reported dTm, does I or II have the smaller number? Indicate your choice by writing its label. I

----------
- tested.on: ~100 representative kinases (Homo sapiens)
- Construct: Recombinant protein kinase domains with a concentration of 2 μM
- procedure.text: DSF 100 kinase selectivity screen;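 note: compound tested at 20 µM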
- Assay type: binding
- measurement.conditions: Protein SRC; DSF; average of three replicates
parameter: dTm (K)

[a] CC(C)(C)c1cccc(NC(=O)C2(C(=O)Nc3cccc(-c4c[nH]c5ncnc(N6CCOCC6)c45)c3)CC2)c1
[b] O=C(Nc1cccc(-c2c[nH]c3ncnc(N4CCOCC4)c23)c1)C1(C(=O)Nc2cc(Br)c(F)cc2F)CC1
[c] Cc1cc(NC(=O)C2(C(=O)Nc3ccc(F)cc3)CC2)cc(-c2c[nH]c3ncnc(N4CCOCC4)c23)c1
Sort the listed entries by dTm, smallest first. Please express your ranking as an ordered list of the labels. b, a, c
(b: -0.23 K, a: -0.0179 K, c: 0.20 K)
